target: Solute carrier organic anion transporter family member 1C1; experiment: TP_TRANSPORTER: inhibition of L-T4 uptake in Oatp14-expressing HEK293 cells
pKi: −log10 of the molar value.
Metric: pKi

{"Compound smiles": "CCCN(CCC)S(=O)(=O)c1ccc(C(=O)O)cc1", "Test target": "Solute carrier organic anion transporter family member 1C1", "pKi": 3.53}
{"Compound smiles": "N[C@@H](Cc1ccc(Oc2cc(I)c(O)c(I)c2)c(I)c1)C(=O)O", "Test target": "Solute carrier organic anion transporter family member 1C1", "pKi": 6.04}

P = C[C@]12CC[C@@H]3c4ccc(OS(=O)(=O)O)cc4CC[C@H]3[C@@H]1CCC2=O
Q = N[C@@H](Cc1cc(I)c(Oc2ccc(O)c(I)c2)c(I)c1)C(=O)O
R = N[C@H](Cc1cc(I)c(Oc2cc(I)c(O)c(I)c2)c(I)c1)C(=O)O
S = O=C(O)Cc1cc(I)c(Oc2ccc(O)c(I)c2)c(I)c1
Asked: Rank items: key pKi, increasing. Rank the items, then write their labels in that order.
Given back: P, Q, S, R
